All values here come from PubChem BioAssay (NCI).

test system: HCT-15 colon; assay: NCI-60 one-dose screen, 48 h (100 = growth as untreated, 0 = no growth, -100 = all killed); conditions: 10 µM unless noted
This is part of a sample that, as a whole, favours compounds with a hit. Of some 83,000 tested, about 20% had one in any assay.
Outcome: satisfied for growth of at least 80%; not satisfied for anything lower.

In: Check the entry COCCC[C@H]1O[C@@](O)([C@H](C)[C@@H]2CC(OC)C(O)/C=C(C)/C=C(C)/C=C(\C)C(OC3O[C@@H](C)[C@H](O)C(O)[C@@H]3O)C(C)/C=C(C)/C=C(OC)/C=C(\C)C(=O)O2)C(OC)C(O)[C@]1(C)O[C@H]1C[C@@H](O)[C@H](O[C@H]2C[C@](C)(O)[C@H](O)C(C)O2)C(C)O1 (some centres not stated) : does growth equal or exceed 80%?
Out: not satisfied

In: Similarly, COC[C@]12CC[C@@H](C)[C@H](C)[C@H]1C1=CC[C@@H]3[C@@]4(C)CCCNC(C)(C)[C@@H]4CC[C@@]3(C)[C@]1(C)CC2 ?
Out: not satisfied

In: Further, for COc1ccc(N)cc1C(=O)Nc1cccc(-c2cc(=O)c3c(OC)c(OC)c(OC)cc3o2)c1 ?
Out: not satisfied

In: Then this compound: CNC(=O)c1cc(Oc2ccc3nc(NC(=O)c4cc(C)cc(C)c4)sc3c2)ccn1
Out: not satisfied

In: Next: COC(=O)[C@@]1(C)CC[C@]2(C)CC[C@]3(C)C(=CC(=O)[C@@H]4[C@@]5(C)Cc6c(n(CC#CCN7CCN(C)CC7)c7ccccc67)C(C)(C)[C@@H]5CC[C@]43C)[C@@H]2C1
Out: not satisfied

Alright, here's another compound for you.
In: Tell me whether growth is at least 80% here: O=C1[C@H]2Cc3c([nH]c4ccccc34)[C@@H](c3ccc(Cl)cc3)N2C(=O)CN1C1CCN(Cc2c(Cl)cccc2Cl)CC1
Out: not satisfied

----------
Consider the following compounds; for each one, report its growth.
system: MALME-3M melanoma; experiment: NCI-60 one-dose screen, 48 h (100 = growth as untreated, 0 = no growth, -100 = all killed); settings: 10 µM unless noted
The panel holds about 83,000 compounds, 20% with a hit somewhere; the sample as a whole holds those more often. Activity calls are given as the source filed them. How the source made its calls: active means growth percent below 10; inactive means the rest.

In: Consider the compound C/C(=C(/c1ccc(O)cc1)c1ccc(OCCN(C)C)cc1)c1ccc(Cl)cc1 and give its measured growth.
Out: -47.9% (active)

In: Item: COc1ccc2c(C3=C(c4c[nH]c5ccccc45)C(=O)N(O)C3=O)coc2c1
Out: 94.8% (inactive)

In: Would you mind doing O=C(COc1ccc(C2SCC(=O)N2c2ccc(F)cc2)cc1)c1ccccc1 (stereo unspecified) as well?
Out: 97.9% (inactive)

Please supply growth for each of the following items, keeping them in order.
1. O=C1c2c(O)cc(O)cc2O[C@@H](c2ccc(O)cc2)[C@@H]1c1c(O)cc(O)c2c(=O)cc(-c3ccc(O)c(O)c3)oc12
2. Cc1ccc(-c2cc(-c3cccc4ccccc34)n3c(n2)nc2ccccc23)cc1
3. O=C(Nc1ccc(-c2nc(-c3cccc(O)c3)c(-c3ccnc(Br)c3)[nH]2)cc1)c1ccccc1
4. O=C(NNc1nc2cc(F)c(F)cc2n2cccc12)c1ncccn1
5. CCNC(=NCCCN(C)C)N/C(N)=N/c1nc2ccccc2s1
6. Oc1ccc(-c2nnc(SCc3ccc(O)c4ncccc34)o2)cc1

Out:
["90.7% (inactive)", "32.2% (inactive)", "16.9% (inactive)", "32.7% (inactive)", "97% (inactive)", "18.7% (inactive)"]

I'm hoping you can list growth for every compound here, please.
1. COc1cc2oc(-c3cccc(NC(=O)c4cc(NC(=O)[C@H](C)NC(=O)OC(C)(C)C)ccc4C)c3)cc(=O)c2c(OC)c1OC
2. C=C(C)C(=O)O[C@H]1C[C@@]2(C)OC(=CC2=O)[C@H](C)[C@H](O)[C@H]2OC(=O)C(=C)[C@@H]21
3. O=S(=O)(Nc1cc(Cl)cc(Cl)c1)c1ccc(-c2cnc(C3CC3)o2)cc1
4. CC(=O)NC(C)(C)C(=O)N[C@@H](C)C(=O)NC(C)(C)C(=O)N[C@@H](C)C(=O)NC(C)(C)C(=O)N[C@@H](C)C(=O)N[C@@H](CCC(N)=O)C(=O)NC(C)(C)C(=O)N[C@H](C(=O)NC(C)(C)C(=O)NCC(=O)N[C@@H](CC(C)C)C(=O)NC(C)(C)C(=O)N1CCC[C@H]1C(=O)N[C@H](C(=O)NC(C)(C)C(=O)NC(C)(C)C(=O)N[C@@H](CCC(N)=O)C(=O)N[C@@H](CCC(N)=O)C(=O)N[C@H](CO)CC1CCCCC1)C(C)C)C(C)C
5. CS(=O)(=O)c1nccc(-c2c(-c3ccc(F)c(OCc4ccc(F)cc4)c3)nc3sccn23)n1
6. Cn1c2ccccc2c2c3c(c4c5ccc(Br)cc5oc4c21)C(=O)N(O)C3=O
7. Oc1ccccc1-c1nnc(SCc2ccc(O)c3ncccc23)n1-c1ccccc1

Out:
["92.5% (inactive)", "48.3% (inactive)", "60.4% (inactive)", "-41.4% [5 µM] (active)", "111% (inactive)", "113% (inactive)", "0.0457% (active)"]

----------
test system: HOP-62 NSCLC; assay: NCI-60 one-dose screen, 48 h; settings: 10 µM unless noted
This is part of a sample that, as a whole, favours compounds with a hit. Of some 83,000 tested, about 20% had one in any assay. Activity calls are given as the source filed them. The calls were made as follows: active = growth percent below 10; inactive = the rest.
Outcomes you can answer with include only these: TRUE for active, FALSE for inactive

In: Could you check what this test reported for COc1cc2c3c(n(CCCNCC4CC4)c(=O)c2cc1OC)-c1cc2c(cc1C3=O)OCO2 ?
Out: TRUE

***
In: // return assay outcome for COc1cc(/C=C/C(=O)c2ccc(NC(=O)CSc3nnc(-c4ccc5nc(-c6ccccc6)[nH]c5c4)o3)cc2)cc(OC)c1OC
Out: FALSE

In: Another compound: Cc1ccc(-c2nnc3sc(C4=Cc5ccccc5OC=C4)nn23)cc1
Out: FALSE

In: Same question for CCCCCCNC(=O)Oc1ccc(/C(=C(\C)c2ccc(Cl)cc2)c2ccc(OCCN(C)C)cc2)cc1 please.
Out: FALSE

In: Moving on to CC(=O)c1ccc(NC(=O)COc2ccc(C3SCC(=O)N3c3ccc(Br)cc3)cc2)cc1 (stereo not given)
Out: FALSE

----------
tested on: OVCAR-4 ovarian; assay: NCI-60 one-dose screen, 48 h (100 = growth as untreated, 0 = no growth, -100 = all killed); settings: 10 µM unless noted
This is part of a sample that, as a whole, favours compounds with a hit. Of some 83,000 tested, about 20% had one in any assay.
MEASURE: growth (%)
Numbers only, in %.

In: Any idea what growth was measured for CC(c1ccccc1)N1C(=O)/C(=C/c2csc(C#N)n2)SC1=S (stereo not drawn) ?
Out: 98.1

In: Now give it for CCNC(=O)Oc1ccc(/C(=C(/C)c2ccccc2)c2ccc(OCCN3CCCC3)cc2)cc1 too.
Out: 81.7

In: Would you kindly repeat that for O=C(Cn1cc(CN2C(=O)c3ccc([N+](=O)[O-])cc3C2=O)nn1)Nc1ccc(F)cc1Cl ?
Out: 106

In: Also COc1cc2c3c(n(CCCNC4CCCCC4)c(=O)c2cc1OC)-c1cc2c(cc1C3=O)OCO2 ?
Out: 93.2

# per-item lookup of growth; items listed below
1. COc1cc2c3c(n(CCCN4CCCCC4)c(=O)c2cc1OC)-c1cc2c(cc1C3=O)OCO2
2. c1cncc(-c2cn3nc(-c4c[nH]c5ccccc45)sc3n2)c1
3. CN1CCN(c2nc(-c3cnc4ccccc4n3)cc3ccccc23)CC1
4. O=C(O)c1ccc(-n2cc(CNc3ccc(Cl)cc3)c(-c3ccc(F)cc3)n2)cc1
5. COC(=O)c1c(C(=O)OC)c2n(CC(=O)Nc3cccc4cccnc34)c3ccccc3n2c1C(=O)c1ccc(C)cc1

Out:
[-74.1, 83.3, 100, 101, 99.8]

List growth for every entry below, keeping the order given.
1. CCn1c2ccc(/C=N/NS(=O)(=O)CCN(C)C)cc2c2cc(/C=N/NS(=O)(=O)CCN(C)C)ccc21
2. COc1ccc2oc3c4[nH]c5ccccc5c4c4c(c3c2c1)C(=O)N(O)C4=O
3. CC(C)C[C@H]1C(=O)O[C@H](C(C)C)C(=O)N(C)[C@@H](C(C)C)C(=O)O[C@H](C(C)C)C(=O)N(C)[C@@H](C(C)C)C(=O)O[C@H](C(C)C)C(=O)N1C
4. COc1ccc(-c2nc3cc(Cl)c(Cl)cc3n2CC(=O)N=Nc2c(O)[nH]c3ccccc23)cc1
5. CCOC(=O)C1=C(C)Nc2nc3ccccc3n2C1c1ccccc1 (stereo not drawn)
6. Cc1cc(NS(=O)(=O)c2ccc(-c3cnc(C4CC4)o3)cc2)ccc1I
7. COc1ccc(-c2oc3cc(O)cc(O)c3c(=O)c2OC)cc1O

Out:
1: 99.8; 2: 104; 3: 18.3; 4: 75.1; 5: 83.7; 6: 59.9; 7: 46.2

Fill in growth for each of the 2 molecules listed.
1. COc1cc2c3c(n(CCCNC4CCC4)c(=O)c2cc1OC)-c1cc2c(cc1C3=O)OCO2
2. O=C1[C@H]2Cc3c([nH]c4ccccc34)[C@@H](c3ccc(Cl)cc3)N2C(=O)CN1C1CCN(Cc2c(Cl)cccc2Cl)CC1

Out:
-57.9
87.1
